Biological target: HLA-DRB1*01:01 (Homo sapiens, UniProt P01903+P01911, A100R/D57E/F55L/F60I/F76Y/I96L/L162R/M171V/P40L/Q125E/R42F/V115G/Y59C)
Construct: EBV transformed homozygous cell lines were used as sources of MHC molecules; endogenous in cells; host or cells: EBV transformed homozygous cell lines
Experiment: HLA class II peptide binding, inhibition of radiolabeled peptide binding to purified MHC
Conditions: citrullinated 15-mer (X); purified MHC, inhibition of radiolabeled peptide binding; dash = IC50 >40,000 nM; read-out: DRB1*01:01 binding capacity, Cit peptide (IC50 nM)
Square brackets hold non-standard residues; d marks the D form. Peptide text beside a SMILES is read from it. Cit = NC(=O)NCCC[C@H](N)C(=O)O
The entries below are paired with their reported IC50.
The figure you give is taken to be in nM; do not add the unit.

For orientation, consider the following solved cases.
molecule="CC(C)[C@H](NC(=O)[C@H](Cc1ccc(O)cc1)NC(=O)[C@H](CO)NC(=O)[C@H](CCCNC(N)=O)NC(=O)[C@H](CO)NC(=O)[C@H](CO)NC(=O)[C@H](CO)NC(=O)[C@@H]1CCCN1C(=O)[C@H](CCCNC(=N)N)NC(=O)[C@H](CO)NC(=O)[C@H](C)N)C(=O)N[C@H](C(=O)N[C@H](C(=O)N[C@@H](CO)C(=O)N[C@H](C(=O)O)[C@@H](C)O)[C@@H](C)O)[C@@H](C)O [ASRPSSSXSYVTTST] (H-ASRPSSS[Cit]SYVTTST-OH)" quantityname=IC50 valueobserved=12900
molecule="CC(C)C[C@H](NC(=O)[C@H](CC(=O)O)NC(=O)[C@H](CC(C)C)NC(=O)[C@H](CCCNC(N)=O)NC(=O)[C@H](C)NC(=O)[C@H](CC(C)C)NC(=O)[C@H](CO)NC(=O)[C@H](C)NC(=O)[C@H](CC(N)=O)NC(=O)[C@H](CC(=O)O)NC(=O)[C@@H](NC(=O)[C@H](CC(=O)O)NC(=O)[C@H](CCC(N)=O)NC(=O)[C@H](CCCNC(=N)N)NC(=O)[C@@H](N)Cc1ccccc1)C(C)C)C(=O)O [FRQDVDNASLAXLDL] (H-FRQDVDNASLA[Cit]LDL-OH)" quantityname=IC50 valueobserved=3940

Now for the molecule whose IC50 we want.
Consider the molecule CSCC[C@H](NC(=O)[C@H](CCCNC(N)=O)NC(=O)[C@H](CCCNC(=N)N)NC(=O)[C@@H](N)Cc1ccc(O)cc1)C(=O)N[C@@H](Cc1ccccc1)C(=O)NCC(=O)NCC(=O)N1CCC[C@H]1C(=O)NCC(=O)N[C@H](C(=O)N[C@@H](C)C(=O)N[C@@H](CO)C(=O)N[C@@H](CCCNC(=N)N)C(=O)N1CCC[C@H]1C(=O)N[C@@H](CO)C(=O)O)[C@@H](C)O [YRXMFGGPGTASRPS] (H-YR[Cit]MFGGPGTASRPS-OH) and give its measured IC50.
512

###

Biological target: HLA-DRB1*01:01 (Homo sapiens, UniProt P01903+P01911, A100R/D57E/F55L/F60I/F76Y/I96L/L162R/M171V/P40L/Q125E/R42F/V115G/Y59C)
Construct: EBV transformed homozygous cell lines were used as sources of MHC molecules; endogenous in cells; host or cells: EBV transformed homozygous cell lines
Assay: HLA class II peptide binding, inhibition of radiolabeled peptide binding to purified MHC
Conditions: citrullinated 15-mer peptide (X = citrulline); purified HLA-DRB1*01:01; read-out: DRB1*01:01 binding capacity, Cit peptide (IC50 nM)
Square brackets hold non-standard residues; d marks the D form. Peptide text beside a SMILES is read from it. Cit = NC(=O)NCCC[C@H](N)C(=O)O
The entries below are paired with their reported IC50.

For orientation, consider the following solved cases.
compound="CC(C)C[C@H](NC(=O)CNC(=O)[C@@H]1CCCN1C(=O)[C@H](C)NC(=O)CNC(=O)[C@@H]1CCCN1C(=O)[C@H](CC(C)C)NC(=O)CNC(=O)[C@H](CCCCN)NC(=O)[C@H](CCC(=O)O)NC(=O)CNC(=O)[C@H](C)NC(=O)[C@@H](N)CCCCN)C(=O)N[C@@H](CCCNC(N)=O)C(=O)NCC(=O)O [KAGEKGLPGAPGLXG] (H-KAGEKGLPGAPGL[Cit]G-OH)" quantityname=IC50 valueobserved="578 nM"
compound="CC[C@H](C)[C@H](NC(=O)[C@H](CCC(=O)O)NC(=O)[C@H](CC(=O)O)NC(=O)[C@H](CCC(N)=O)NC(=O)[C@H](CC(C)C)NC(=O)[C@H](CCCNC(N)=O)NC(=O)CNC(=O)[C@@H](NC(=O)[C@@H](N)[C@@H](C)O)[C@@H](C)CC)C(=O)N[C@@H](CCC(N)=O)C(=O)N[C@@H](CC(N)=O)C(=O)N[C@@H](CCSC)C(=O)N[C@@H](CCCCN)C(=O)N[C@@H](CCC(=O)O)C(=O)N[C@@H](CCC(=O)O)C(=O)O [TIGXLQDEIQNMKEE] (H-TIG[Cit]LQDEIQNMKEE-OH)" quantityname=IC50 valueobserved="> 40000 nM"

Now for the compound whose IC50 we want.
Consider the compound CSCC[C@H](NC(=O)[C@H](Cc1ccc(O)cc1)NC(=O)[C@H](CCC(N)=O)NC(=O)[C@H](CC(C)C)NC(=O)[C@@H]1CCCN1C(=O)[C@H](CC(=O)O)NC(=O)[C@@H]1CCCN1C(=O)CNC(=O)[C@H](CCCCN)NC(=O)[C@H](CCC(=O)O)NC(=O)[C@H](CCCNC(N)=O)NC(=O)[C@@H]1CCCN1C(=O)CNC(=O)[C@@H](N)CC(C)C)C(=O)N[C@@H](CCCNC(=N)N)C(=O)O [LGPXEKGPDPLQYMR] (H-LGP[Cit]EKGPDPLQYMR-OH) and give its measured IC50.
10900 nM
